Target: T1, SNTG1, Q9NSN8
T1 sequence (Q9NSN8 52-150, limits assumed, looked up): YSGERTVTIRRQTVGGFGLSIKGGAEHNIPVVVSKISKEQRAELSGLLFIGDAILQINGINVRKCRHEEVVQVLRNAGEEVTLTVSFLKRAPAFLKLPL
Test: holdup assay
Set-up: key: below the threshold = too weak to quantify, mostly under pKd 3.1 to 4
Settings: plain residues with an end cap or a label only (N-terminal biotin on a linker: ado-ado)
Reported endpoint: pKd

{"Binder": "IQISELETNV [SLC1A7, O00341]", "pKd": 5.26}
{"Binder": "IGHEDLETAV [DGKI, O75912]", "pKd": 5.43}
{"Binder": "EFKQTSSFLV [JAM1, Q9Y624]", "pKd": "below the threshold"}
{"Binder": "FHSIKQSTAV [CRHR1, P34998]", "pKd": 3.64}
{"Binder": "GDSSRKEYFI [GYPC, P04921]", "pKd": "below the threshold"}

Lookup: For KEKASTETEC [TRPM1, Q7Z4N2] , what is its reported pKd?
Found: below the threshold

Lookup: Please give the measured pKd for this binder: PDSYHRRDFW [U2AF2, P26368]
Found: below the threshold
